Overview of recorded inhibition for various compounds
molecular target: Histone acetyltransferase KAT2B (Homo sapiens, UniProt Q92831); experiment: Inhibition of PCAF (unknown origin) using histone H3/[acetyl-3H]-acetyl coenzyme A as substrate at 100 uM
Sequence (Q92831 whole entry, looked up): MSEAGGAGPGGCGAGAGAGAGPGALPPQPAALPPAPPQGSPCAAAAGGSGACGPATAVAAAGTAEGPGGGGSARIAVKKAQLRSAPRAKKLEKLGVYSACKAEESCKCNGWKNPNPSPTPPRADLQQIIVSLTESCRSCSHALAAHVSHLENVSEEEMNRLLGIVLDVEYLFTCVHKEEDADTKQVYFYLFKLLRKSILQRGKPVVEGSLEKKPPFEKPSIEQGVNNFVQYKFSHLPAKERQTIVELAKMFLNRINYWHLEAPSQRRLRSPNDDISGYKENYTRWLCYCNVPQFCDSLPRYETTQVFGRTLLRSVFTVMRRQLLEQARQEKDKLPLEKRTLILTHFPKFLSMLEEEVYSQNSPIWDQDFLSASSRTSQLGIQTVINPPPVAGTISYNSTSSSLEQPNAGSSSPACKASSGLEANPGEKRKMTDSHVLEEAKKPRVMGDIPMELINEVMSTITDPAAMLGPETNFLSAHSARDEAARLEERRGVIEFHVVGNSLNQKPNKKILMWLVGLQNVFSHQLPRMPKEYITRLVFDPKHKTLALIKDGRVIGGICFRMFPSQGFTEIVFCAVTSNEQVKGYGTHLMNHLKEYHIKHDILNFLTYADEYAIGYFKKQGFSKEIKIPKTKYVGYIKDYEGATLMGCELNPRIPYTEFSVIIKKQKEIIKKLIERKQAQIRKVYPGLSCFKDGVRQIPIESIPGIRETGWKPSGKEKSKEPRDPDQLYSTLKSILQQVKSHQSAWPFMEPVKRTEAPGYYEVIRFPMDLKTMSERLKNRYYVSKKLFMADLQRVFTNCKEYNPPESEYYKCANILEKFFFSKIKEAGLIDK

{"mol": "COc1ccc(C=C2C(=O)N(CC(C)C)C(=O)N(CC(C)C)C2=O)cc1", "target or test system": "Histone acetyltransferase KAT2B (Homo sapiens, UniProt Q92831)", "inhibition (%)": 3.6}
{"mol": "C=CCN1C(=O)C(=Cc2ccc(OC)c(O)c2)C(=O)N(CC=C)C1=O", "target or test system": "Histone acetyltransferase KAT2B (Homo sapiens, UniProt Q92831)", "inhibition (%)": 3}
{"mol": "O=C1C(=Cc2ccc(O)cc2)C(=O)N(Cc2ccccc2)C(=O)N1Cc1ccccc1", "target or test system": "Histone acetyltransferase KAT2B (Homo sapiens, UniProt Q92831)", "inhibition (%)": -0.6}
{"mol": "COc1cc(C=C2C(=O)N(CC(C)C)C(=O)N(CC(C)C)C2=O)ccc1O", "target or test system": "Histone acetyltransferase KAT2B (Homo sapiens, UniProt Q92831)", "inhibition (%)": 9.3}
{"mol": "CCCCCCCCCCCCCCCc1cccc(O)c1C(=O)O", "target or test system": "Histone acetyltransferase KAT2B (Homo sapiens, UniProt Q92831)", "inhibition (%)": 3.6}
